Listed molecules paired with reported IC50
tested_system: Protein Tat (Human immunodeficiency virus type 1 group M subtype B (isolate HXB2)) (UniProt P04608)
Sequence (P04608 whole entry, looked up): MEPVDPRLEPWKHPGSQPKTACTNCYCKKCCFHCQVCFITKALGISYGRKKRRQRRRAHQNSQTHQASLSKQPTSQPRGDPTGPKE
protocol_description: inhibitors of Tat binding to TAR RNA, dose response, counter-screen for Vif-APOBEC3G degradation inhibitor project, biochemical, fluorescence polarization, FAM-labeled TAR RNA (AID 1117361)

The examples below pair each entry with its known result.
In [3]: df
Out[3]:
                                   molecule  assay_result
0                 C(=C\c1ccco1)/C=N/n1cnnc1       10.4 µM
1  COc1ccc(/C=C(\NC(=O)c2ccc(OCC(C)C)cc2)C(=O)OCc2ccco2)cc1       61.5 µM

Switching to the query record.
What the record says about CC(C(=O)O)N1C(=O)/C(=C/C=C/c2ccco2)SC1=S (stereo not drawn) : IC50 is 1.54 µM
